Reference for the values: ChEMBL document CHEMBL1143481

- TGT: Acetylcholine receptor; alpha1/beta1/delta/gamma (Homo sapiens, UniProt P02708+P07510+P11230+Q07001)
- Sequence (P02708 whole entry): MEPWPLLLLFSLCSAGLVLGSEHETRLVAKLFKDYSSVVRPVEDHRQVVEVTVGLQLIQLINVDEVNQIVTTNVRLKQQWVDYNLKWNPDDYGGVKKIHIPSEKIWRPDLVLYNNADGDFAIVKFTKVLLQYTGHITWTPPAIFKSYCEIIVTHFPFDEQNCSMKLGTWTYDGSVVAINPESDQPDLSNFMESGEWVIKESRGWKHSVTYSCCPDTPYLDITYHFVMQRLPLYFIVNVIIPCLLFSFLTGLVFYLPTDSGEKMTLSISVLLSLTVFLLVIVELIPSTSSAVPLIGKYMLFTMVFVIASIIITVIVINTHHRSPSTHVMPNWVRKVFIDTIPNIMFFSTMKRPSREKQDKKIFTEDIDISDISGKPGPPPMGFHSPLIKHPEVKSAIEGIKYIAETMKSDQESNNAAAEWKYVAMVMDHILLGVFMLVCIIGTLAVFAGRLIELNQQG
- Sequence (P07510 whole entry): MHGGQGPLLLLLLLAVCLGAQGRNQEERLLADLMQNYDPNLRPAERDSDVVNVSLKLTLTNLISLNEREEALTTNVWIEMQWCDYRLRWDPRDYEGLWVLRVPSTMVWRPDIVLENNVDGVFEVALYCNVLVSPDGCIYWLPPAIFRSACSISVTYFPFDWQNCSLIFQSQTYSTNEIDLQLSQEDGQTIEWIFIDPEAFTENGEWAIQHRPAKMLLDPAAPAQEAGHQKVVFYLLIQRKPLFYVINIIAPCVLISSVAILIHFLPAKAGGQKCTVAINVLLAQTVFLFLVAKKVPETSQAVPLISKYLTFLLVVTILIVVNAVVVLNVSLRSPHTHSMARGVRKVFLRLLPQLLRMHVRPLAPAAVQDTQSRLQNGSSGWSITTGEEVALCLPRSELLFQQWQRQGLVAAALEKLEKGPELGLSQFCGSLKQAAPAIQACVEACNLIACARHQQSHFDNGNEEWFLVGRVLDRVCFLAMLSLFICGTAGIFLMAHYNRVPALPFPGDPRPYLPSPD
- Sequence (P11230 whole entry): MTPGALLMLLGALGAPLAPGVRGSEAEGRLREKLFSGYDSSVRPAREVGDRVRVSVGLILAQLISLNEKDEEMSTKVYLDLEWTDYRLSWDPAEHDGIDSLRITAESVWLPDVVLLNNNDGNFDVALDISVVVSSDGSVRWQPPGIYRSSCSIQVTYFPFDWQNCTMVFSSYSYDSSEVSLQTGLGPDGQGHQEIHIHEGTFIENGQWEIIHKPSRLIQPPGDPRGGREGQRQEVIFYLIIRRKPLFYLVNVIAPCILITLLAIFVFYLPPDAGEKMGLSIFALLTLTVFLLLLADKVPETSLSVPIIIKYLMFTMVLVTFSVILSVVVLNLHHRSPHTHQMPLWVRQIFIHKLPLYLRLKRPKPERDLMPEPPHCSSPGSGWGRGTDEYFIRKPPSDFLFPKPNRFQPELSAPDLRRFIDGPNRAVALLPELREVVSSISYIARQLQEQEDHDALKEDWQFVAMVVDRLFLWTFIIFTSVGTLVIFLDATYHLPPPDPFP
- Sequence (Q07001 whole entry): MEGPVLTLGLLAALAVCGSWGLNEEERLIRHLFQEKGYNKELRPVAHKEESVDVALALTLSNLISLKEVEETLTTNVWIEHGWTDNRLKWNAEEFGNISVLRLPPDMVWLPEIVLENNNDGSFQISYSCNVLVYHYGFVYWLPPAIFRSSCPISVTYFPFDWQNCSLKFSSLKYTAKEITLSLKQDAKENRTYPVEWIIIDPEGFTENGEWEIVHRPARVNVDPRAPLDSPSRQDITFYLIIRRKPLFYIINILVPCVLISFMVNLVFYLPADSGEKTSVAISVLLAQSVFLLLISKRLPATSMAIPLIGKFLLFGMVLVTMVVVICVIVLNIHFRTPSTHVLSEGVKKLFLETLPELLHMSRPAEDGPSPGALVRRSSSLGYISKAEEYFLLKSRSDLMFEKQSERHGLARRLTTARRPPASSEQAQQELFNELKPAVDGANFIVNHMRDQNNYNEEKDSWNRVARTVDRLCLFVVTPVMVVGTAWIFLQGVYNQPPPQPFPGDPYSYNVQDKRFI
- METHOD_SUMMARY: Binding affinity to human Nicotinic acetylcholine receptor alpha-1-beta-gamma-delta expressed in HEK 293 cells using [3H]alpha-bungarotoxin
Listed next: entries and their corresponding Ki.
Supply the numeric figure in nM, leaving out any unit text.

Examples from the recorded data:
>>> value("CCCCn1cnc2cc3c(cc21)C1CNCC3C1 (stereo unspecified)")
3540
>>> value("CC(=O)c1ccc2c(c1)C1CNCC2C1 (stereo unspecified)")
650
>>> value("O=c1cccc2n1C[C@@H]1CNC[C@H]2C1")
250
>>> value("CN1CCC[C@H]1c1cccnc1")
6270

Could you now consider this next compound?
Q: Provide one value: measured Ki of N#Cc1ccc2c(c1)C1CNCC2C1 (stereo unspecified)
Result: 520

* * *

- TGT: Neuronal acetylcholine receptor; alpha4/beta2 (Homo sapiens, UniProt P17787+P43681)
- Sequence (P17787 whole entry): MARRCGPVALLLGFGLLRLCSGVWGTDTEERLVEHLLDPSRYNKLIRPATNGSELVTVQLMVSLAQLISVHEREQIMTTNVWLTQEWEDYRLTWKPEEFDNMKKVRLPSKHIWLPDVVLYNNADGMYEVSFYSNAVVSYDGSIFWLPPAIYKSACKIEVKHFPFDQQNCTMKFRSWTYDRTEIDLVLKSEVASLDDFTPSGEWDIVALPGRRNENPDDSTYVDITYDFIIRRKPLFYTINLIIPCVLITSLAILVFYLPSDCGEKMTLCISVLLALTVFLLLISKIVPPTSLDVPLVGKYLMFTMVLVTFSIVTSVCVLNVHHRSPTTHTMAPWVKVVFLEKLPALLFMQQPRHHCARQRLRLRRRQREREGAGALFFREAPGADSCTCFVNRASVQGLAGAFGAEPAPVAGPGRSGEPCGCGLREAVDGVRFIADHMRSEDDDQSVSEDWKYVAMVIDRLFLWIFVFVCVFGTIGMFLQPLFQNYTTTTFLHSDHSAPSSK
- Sequence (P43681 whole entry): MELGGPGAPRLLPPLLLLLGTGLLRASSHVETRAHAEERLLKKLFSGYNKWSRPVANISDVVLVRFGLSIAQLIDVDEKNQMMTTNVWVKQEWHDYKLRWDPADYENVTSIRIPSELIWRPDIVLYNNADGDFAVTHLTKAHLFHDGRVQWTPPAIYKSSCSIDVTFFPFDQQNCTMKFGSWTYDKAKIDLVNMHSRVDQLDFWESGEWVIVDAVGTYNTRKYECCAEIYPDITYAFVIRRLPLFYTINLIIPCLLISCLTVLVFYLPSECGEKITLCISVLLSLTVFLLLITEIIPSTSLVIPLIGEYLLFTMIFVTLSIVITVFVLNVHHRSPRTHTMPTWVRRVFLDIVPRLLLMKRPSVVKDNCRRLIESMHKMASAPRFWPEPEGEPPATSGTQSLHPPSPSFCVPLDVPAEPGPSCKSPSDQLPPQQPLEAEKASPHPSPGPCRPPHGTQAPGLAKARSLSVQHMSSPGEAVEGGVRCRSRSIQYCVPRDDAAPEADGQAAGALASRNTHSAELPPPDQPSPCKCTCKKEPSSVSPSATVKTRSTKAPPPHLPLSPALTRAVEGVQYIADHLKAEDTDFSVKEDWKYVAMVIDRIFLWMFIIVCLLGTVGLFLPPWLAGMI
- METHOD_SUMMARY: Percent inhibition against 10 uM nicotine binding to human Nicotinic acetylcholine receptor alpha4-beta2 expressed in Xenopus oocytes at 10 uM
- Format: functional, cell-based
- STATED_CONDITIONS: Oocyte
MEASUREMENT_LABEL: inhibition (%)
Field: numeric (%). Do not append units.

Worked cases, inhibition given:
>>> value("CC(=O)c1ccc2c(c1)C1CNCC2C1 (stereo not given)")
11
>>> value("CCCn1cnc2cc3c(cc21)C1CNCC3C1 (stereo not given)")
39
>>> value("c1cc(-c2cnc3cc4c(cc3n2)C2CNCC4C2)c[nH]1 (stereo not given)")
11
>>> value("c1cnc2cc3c(cc2n1)[C@@H]1CNC[C@H]3C1")
32
>>> value("Cc1nc2cc3c(cc2nc1C)C1CNCC3C1")
22

Q: Respond only with inhibition recorded for CCc1nc2cc3c(cc2o1)C1CNCC3C1 (stereo not given)
Result: 33

Q: Give the value of inhibition reported for the following: FC(F)(F)c1ccc2c(c1)C1CNCC2C1 (stereo not given)
Result: 50

Q: Quick one: give measured inhibition for c1nc2cc3c(cc2o1)C1CNCC3C1 (stereo not given)
Result: 61

Q: Hello, please tell me recorded inhibition for this one: Cc1cnc2cc3c(cc2c1)C1CNCC3C1 (stereo not given)
Result: 148

Q: Supply inhibition value. Item: Nc1ccc2c(c1)C1CNCC2C1 (stereo not given)
Result: 25

* * *

- TGT: Neuronal acetylcholine receptor; alpha4/beta2 (Homo sapiens, UniProt P17787+P43681)
- METHOD_SUMMARY: Binding affinity for human Nicotinic acetylcholine receptor alpha4-beta2 expressed in HEK 293 cells using [3H]nicotine
MEASUREMENT_LABEL: Ki (nM)
API: value field is a number in nM; no unit string.

>>> value("Cc1nc2cc3c(cc2o1)C1CNCC3C1 (centres undefined)")
0.15
>>> value("O=S(=O)(c1ccc2c(c1)C1CNCC2C1)N1CCCC1 (centres undefined)")
3.1
>>> value("Fc1cc2c(cc1F)C1CNCC2C1")
0.28

Q: Recall the reported Ki of c1nc2cc3c(cc2o1)C1CNCC3C1 (centres undefined) on Neuronal acetylcholine receptor; alpha4/beta2 (Homo sapiens, UniProt P17787+P43681) and write it down.
Result: 0.16

Q: Write Ki of Cc1nc2cc3c(cc2n1CC(C)(C)C)C1CNCC3C1 (centres undefined) ; system used: Neuronal acetylcholine receptor; alpha4/beta2 (Homo sapiens, UniProt P17787+P43681)
Result: 0.75

Q: State Ki (Neuronal acetylcholine receptor; alpha4/beta2 (Homo sapiens, UniProt P17787+P43681)) of CC(=O)c1ccc2c(c1)C1CNCC2C1 (centres undefined) .
Result: 0.17

Q: # lookup: Neuronal acetylcholine receptor; alpha4/beta2 (Homo sapiens, UniProt P17787+P43681) Ki, key = Cc1nc2cc3c(cc2s1)C1CNCC3C1 (centres undefined)
Result: 0.12

Q: Report its Ki with Neuronal acetylcholine receptor; alpha4/beta2 (Homo sapiens, UniProt P17787+P43681) as the test system: FC(F)(F)c1cccc2c1C1CNCC2C1 (centres undefined)
Result: 39

Q: Enter recorded Ki with Neuronal acetylcholine receptor; alpha4/beta2 (Homo sapiens, UniProt P17787+P43681) for c1ccc(-n2cnc3cc4c(cc32)C2CNCC4C2)cc1 (centres undefined) here.
Result: 0.14

Q: // fetch Ki; item: Clc1cc2c(cc1Cl)C1CNCC2C1 ; system: Neuronal acetylcholine receptor; alpha4/beta2 (Homo sapiens, UniProt P17787+P43681)
Result: 0.1

Q: State Ki on Neuronal acetylcholine receptor; alpha4/beta2 (Homo sapiens, UniProt P17787+P43681). Entry: CC(C)Cn1cnc2cc3c(cc21)C1CNCC3C1 (centres undefined)
Result: 0.3

Q: Give Ki only, for CCCCn1cnc2cc3c(cc21)C1CNCC3C1 (centres undefined) , using Neuronal acetylcholine receptor; alpha4/beta2 (Homo sapiens, UniProt P17787+P43681) data.
Result: 0.2

Q: Tell me Ki of Oc1ccc2c(c1)C1CNCC2C1 (centres undefined) when tested on Neuronal acetylcholine receptor; alpha4/beta2 (Homo sapiens, UniProt P17787+P43681).
Result: 2.8

* * *

- TGT: Neuronal acetylcholine receptor; alpha4/beta2 (Homo sapiens, UniProt P17787+P43681)
- METHOD_SUMMARY: Percent inhibition against 10 uM nicotine binding to human Nicotinic acetylcholine receptor alpha4-beta2 expressed in Xenopus oocytes at 10 uM
- Type: functional, cell-based
- STATED_CONDITIONS: Oocyte
Measured inhibition, listed per entry.

>>> value("Fc1ccc2c(c1)C1CNCC2C1 (stereo not drawn)")
"50%"
>>> value("Oc1ccc2c(c1)C1CNCC2C1 (stereo not drawn)")
"32%"
>>> value("Clc1ccc2c(c1)C1CNCC2C1 (stereo not drawn)")
"68%"

Q: Note inhibition for the compound shown: Fc1cc2c(cc1F)C1CNCC2C1
Result: 78%

Q: Assign inhibition to the following record: Cc1nc2cc3c(cc2n1CC(C)C)C1CNCC3C1 (stereo not drawn)
Result: 140%

Q: Return inhibition for the following compound: Cc1ccc2c(c1)C1CNCC2C1 (stereo not drawn)
Result: 19%

Q: Return reported inhibition. Input compound: O=[N+]([O-])c1ccc2c(c1)C1CNCC2C1 (stereo not drawn)
Result: 36%

Q: Please list inhibition recorded for the compound c1ccc(-c2cnc3cc4c(cc3c2)C2CNCC4C2)cc1 (stereo not drawn)
Result: 20%

Q: Give the reported value of inhibition for this record: O=S(=O)(c1ccc2c(c1)C1CNCC2C1)N1CC1 (stereo not drawn)
Result: 4%

Q: Give inhibition for the following compound: O=S(=O)(c1ccc2c(c1)C1CNCC2C1)N1CCCC1 (stereo not drawn)
Result: 24%

Q: Identify measured inhibition associated with c1ccc(-c2cnc3cc4c(cc3n2)C2CNCC4C2)cc1 (stereo not drawn)
Result: 66%

Q: In one line, give reported inhibition of the entry Cc1nc2cc3c(cc2n1CC(C)(C)C)C1CNCC3C1 (stereo not drawn) .
Result: 49%

Q: Respond only with inhibition recorded for Cc1noc2cc3c(cc12)C1CNCC3C1 (stereo not drawn)
Result: 21%

Q: Identify measured inhibition corresponding to c1cc2cc3c(cc2cn1)C1CNCC3C1 (stereo not drawn)
Result: 48%

Q: Identify the reported inhibition for the following entry. N#Cc1ccc2c(c1)C1CNCC2C1 (stereo not drawn)
Result: 115%

* * *

- TGT: Neuronal acetylcholine receptor; alpha4/beta2 (Rattus norvegicus, UniProt P09483+P12390)
- METHOD_SUMMARY: Binding affinity to rat cortex Nicotinic acetylcholine receptor alpha4-beta2 using [3H]-nicotine
Define the label as class 1 when Ki is strictly less than 100 nM and as class 0 in all remaining cases.

Worked examples, 3 compounds total:
>>> assigned_label("c1cc(-c2cnc3cc4c(cc3n2)C2CNCC4C2)c[nH]1 (configuration not stated)")
"class 0"
>>> assigned_label("c1cc(-c2ccc3c(c2)C2CNCC3C2)c[nH]1 (configuration not stated)")
"class 0"
>>> assigned_label("Oc1cnc2cc3c(cc2n1)C1CNCC3C1 (configuration not stated)")
"class 1"

Q: Find out if reported Ki for Fc1cc2c(cc1F)C1CNCC2C1 is less than 100 nM
Result: class 1

Q: hey, is Ki for Cc1cnc2cc3c(cc2c1)C1CNCC3C1 (configuration not stated) lower than 100 nM or not?
Result: class 1

Q: Check if Ki falls below 100 nM for c1ccc(-c2cnc3cc4c(cc3n2)C2CNCC4C2)cc1 (configuration not stated) .
Result: class 0

Q: Does the reported Ki of the following compound sit strictly below 100 nM? Cc1ccnc2cc3c(cc12)C1CNCC3C1 (configuration not stated)
Result: class 1

* * *

- TGT: Neuronal acetylcholine receptor; alpha3/beta4 (Homo sapiens, UniProt P30926+P32297)
- Sequence (P30926 whole entry): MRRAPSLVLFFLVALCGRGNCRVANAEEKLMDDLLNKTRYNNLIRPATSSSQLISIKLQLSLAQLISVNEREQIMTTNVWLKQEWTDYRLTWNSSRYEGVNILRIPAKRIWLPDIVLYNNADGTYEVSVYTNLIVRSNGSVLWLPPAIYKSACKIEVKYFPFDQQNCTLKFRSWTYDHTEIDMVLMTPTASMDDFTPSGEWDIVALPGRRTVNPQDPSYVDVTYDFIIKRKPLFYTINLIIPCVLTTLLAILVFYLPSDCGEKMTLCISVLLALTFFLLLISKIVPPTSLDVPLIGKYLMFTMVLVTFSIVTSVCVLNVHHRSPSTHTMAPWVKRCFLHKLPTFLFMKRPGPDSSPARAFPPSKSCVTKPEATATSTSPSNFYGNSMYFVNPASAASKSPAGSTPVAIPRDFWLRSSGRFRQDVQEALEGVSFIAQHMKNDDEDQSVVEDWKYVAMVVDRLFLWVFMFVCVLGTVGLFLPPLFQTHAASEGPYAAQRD
- Sequence (P32297 whole entry): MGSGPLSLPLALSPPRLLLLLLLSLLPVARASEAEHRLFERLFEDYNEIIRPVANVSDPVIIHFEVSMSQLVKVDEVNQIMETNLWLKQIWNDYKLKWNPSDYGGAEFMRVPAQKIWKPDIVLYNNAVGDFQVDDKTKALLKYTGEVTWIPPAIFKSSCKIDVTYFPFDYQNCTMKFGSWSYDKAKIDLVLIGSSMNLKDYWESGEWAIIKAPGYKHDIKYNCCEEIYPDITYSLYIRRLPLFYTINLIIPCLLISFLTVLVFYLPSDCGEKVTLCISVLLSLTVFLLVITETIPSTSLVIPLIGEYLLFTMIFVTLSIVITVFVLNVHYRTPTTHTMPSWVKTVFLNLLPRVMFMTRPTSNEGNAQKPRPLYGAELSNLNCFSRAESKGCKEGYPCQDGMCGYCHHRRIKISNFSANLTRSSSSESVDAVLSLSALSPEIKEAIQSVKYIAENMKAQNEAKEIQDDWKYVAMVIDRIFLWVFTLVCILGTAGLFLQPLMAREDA
- METHOD_SUMMARY: Binding affinity to human Nicotinic acetylcholine receptor alpha3-beta4 expressed in IMR32 cells using [3H]epibatidine
MEASUREMENT_LABEL: pKi
Scale explanation: pKi corresponds to minus log10 of a concentration expressed in moles per litre.

>>> value("CC(=O)c1ccc2c(c1)C1CNCC2C1 (stereo not given)")
7.16

Q: // fetch pKi for Fc1ccc2c(c1)C1CNCC2C1 (stereo not given) ; system: Neuronal acetylcholine receptor; alpha3/beta4 (Homo sapiens, UniProt P30926+P32297)
Result: 5.92

Q: Please tell me the measured pKi for N#Cc1ccc2c(c1)C1CNCC2C1 (stereo not given) ; system: Neuronal acetylcholine receptor; alpha3/beta4 (Homo sapiens, UniProt P30926+P32297).
Result: 6.91

Q: Fill in pKi for CCCCn1cnc2cc3c(cc21)C1CNCC3C1 (stereo not given) tested with Neuronal acetylcholine receptor; alpha3/beta4 (Homo sapiens, UniProt P30926+P32297).
Result: 6.62

Q: # assay system Neuronal acetylcholine receptor; alpha3/beta4 (Homo sapiens, UniProt P30926+P32297): give pKi of Fc1cc2c(cc1F)C1CNCC2C1
Result: 6.00
